# System: c-Src protein
# procedure summary: Src kinase phosphorylation of biotinylated cdc2 substrate, fluorescence (DELFIA)
# Assay type: biochemical, human
endpoint label: SRC % inhib at 10 μM (%)
State just the number; it will be interpreted in %.

N#Cc1cccc(S(=O)(=O)Nc2ccc3[nH]nc(-c4ccccc4)c3c2)c1; 44

# get_value(readout='SRC % inhib at 10 μM', item= CS(=O)(=O)c1ccccc1S(=O)(=O)Nc1ccc2[nH]nc(-c3ccccc3)c2c1 )
89

# get_value(readout='SRC % inhib at 10 μM', item= O=S(=O)(Nc1ccc2[nH]nc(-c3ccccc3)c2c1)c1ccccc1Br )
51

# get_value(readout='SRC % inhib at 10 μM', item= O=[N+]([O-])c1ccccc1S(=O)(=O)Nc1ccc2[nH]nc(-c3ccccc3)c2c1 )
23

Attribution: patent US6858638B2
